conditions: buffer; pH 7.4; 200.0 µM
measuredParameter: solubility kinetic

>>> recordedmeasurement("Cc1cc(C)nc(SCC(=O)N/N=C/c2cccnc2)n1")
"> 45.2 µg/mL"
>>> recordedmeasurement("O=Cc1c[nH]c2ccc(OCc3ccccc3)cc12")
"< 0.5 µg/mL"
>>> recordedmeasurement("CN(C(=O)c1ccccc1)c1nccnc1C#N")
"> 35.7 µg/mL"
>>> recordedmeasurement("Cc1ccc(N2C(=O)CC(C)CC2=O)cc1")
"> 32.6 µg/mL"
>>> recordedmeasurement("CN1CC(C#N)C2(O)c3ccccc3CCC2C1 (configuration not stated)")
"> 36.3 µg/mL"
>>> recordedmeasurement("O=C(Nc1cc(C(F)(F)F)ccc1N1CCOCC1)c1ccncc1")
"> 52.7 µg/mL"
>>> recordedmeasurement("O=C(CN1C(=O)NC2(CCCc3ccccc32)C1=O)NCCc1ccc(F)cc1 (configuration not stated)")
"> 59.3 µg/mL"

---

details: buffer; pH 7.4; 200.0 µM
solubility kinetic for assorted molecules
measuredParameter: solubility kinetic

>>> recordedmeasurement("Cc1ccc(Cc2c(C)c(C#N)c3[nH]c4ccccc4n3c2=O)cc1")
"< 0.2 µg/mL"
>>> recordedmeasurement("CC1(C)CC(=O)C(C=Nc2ccc(N)cc2)=C(O)C1")
"> 38.7 µg/mL"
>>> recordedmeasurement("COc1ccc(NC(=O)C(CC(=O)O)Cc2ccc(Cl)cc2)cc1 (stereo unspecified)")
"> 52.2 µg/mL"
>>> recordedmeasurement("Cc1cc(N/N=C/c2ccc(O)cc2O)nc(N2CCOCC2)n1")
"> 49.4 µg/mL"
>>> recordedmeasurement("CC(C(=O)c1c[nH]c2ccccc12)N1CCOCC1 (stereo unspecified)")
"> 38.7 µg/mL"
>>> recordedmeasurement("CC(=O)C1=C(O)C(=O)N(c2ccccn2)C1c1ccc(C)cc1 (stereo unspecified)")
"> 46.3 µg/mL"
>>> recordedmeasurement("O=C(CN1C(=O)NC2NC(=O)NC21)N/N=C/c1ccccc1F (stereo unspecified)")
"> 48 µg/mL"
>>> recordedmeasurement("O=C(Nc1cccc(S(=O)(=O)N2CCCCC2)c1)C1CC1")
"> 46.3 µg/mL"
>>> recordedmeasurement("Cn1cccc1C(=O)Nc1ccc(N2CCOCC2)cc1")
"> 42.8 µg/mL"
>>> recordedmeasurement("COc1cccc(NC(=O)CN(C)C(=O)c2c(C)noc2C)c1")
"> 47.6 µg/mL"
>>> recordedmeasurement("CC1CCc2cc(F)ccc2N1C(=O)CCl (stereo unspecified)")
"> 36.3 µg/mL"

---

conditions: buffer; pH 7.4; 200.0 µM
Would you mind labelling by solubility kinetic? At or over 30 µg/mL is yes, under is no.

>>> categorylabel("O=C(COC(=O)c1cc(=O)[nH]c2ccccc12)Nc1ccc(F)cc1")
"no"
>>> categorylabel("S=C(NCCc1ccccc1)Nc1ccccc1N1CCOCC1")
"yes"
>>> categorylabel("O=C(NCC1CCCO1)c1cccc(NC(=O)c2cccs2)c1 (configuration not stated)")
"yes"
>>> categorylabel("CN1C(=O)NC(c2cccc([N+](=O)[O-])c2)C2=C1CC(C)(C)CC2=O (configuration not stated)")
"yes"
>>> categorylabel("Cc1cnc([N+](=O)[O-])n1CCOC(=O)c1cccc(F)c1")
"yes"
>>> categorylabel("O=C(COC(=O)CC1CC2CCC1C2)Nc1ccccc1Cl (configuration not stated)")
"no"
>>> categorylabel("CCOC(=O)NC(=O)c1cn(CCNCCO)c(=O)[nH]c1=O")
"yes"
>>> categorylabel("CS(=O)(=O)c1ccccc1C(=O)NC1CCCc2ccccc21 (configuration not stated)")
"yes"
>>> categorylabel("CCN1C(=O)CC(c2cccnc2)=Nc2ccccc21")
"yes"
>>> categorylabel("CS(=O)(=O)Nc1ccccc1C(=O)OCC(=O)NCc1cccs1")
"yes"
>>> categorylabel("COc1cccc(OC)c1C(=O)OCC(=O)N(C)c1ccccc1")
"yes"
>>> categorylabel("Cc1ccc(SC(C)C(=O)N2CCN(c3ccccc3)CC2)cc1 (configuration not stated)")
"yes"
